Target: TNKS1 (Homo sapiens)
Sequence (O95271 1-1327): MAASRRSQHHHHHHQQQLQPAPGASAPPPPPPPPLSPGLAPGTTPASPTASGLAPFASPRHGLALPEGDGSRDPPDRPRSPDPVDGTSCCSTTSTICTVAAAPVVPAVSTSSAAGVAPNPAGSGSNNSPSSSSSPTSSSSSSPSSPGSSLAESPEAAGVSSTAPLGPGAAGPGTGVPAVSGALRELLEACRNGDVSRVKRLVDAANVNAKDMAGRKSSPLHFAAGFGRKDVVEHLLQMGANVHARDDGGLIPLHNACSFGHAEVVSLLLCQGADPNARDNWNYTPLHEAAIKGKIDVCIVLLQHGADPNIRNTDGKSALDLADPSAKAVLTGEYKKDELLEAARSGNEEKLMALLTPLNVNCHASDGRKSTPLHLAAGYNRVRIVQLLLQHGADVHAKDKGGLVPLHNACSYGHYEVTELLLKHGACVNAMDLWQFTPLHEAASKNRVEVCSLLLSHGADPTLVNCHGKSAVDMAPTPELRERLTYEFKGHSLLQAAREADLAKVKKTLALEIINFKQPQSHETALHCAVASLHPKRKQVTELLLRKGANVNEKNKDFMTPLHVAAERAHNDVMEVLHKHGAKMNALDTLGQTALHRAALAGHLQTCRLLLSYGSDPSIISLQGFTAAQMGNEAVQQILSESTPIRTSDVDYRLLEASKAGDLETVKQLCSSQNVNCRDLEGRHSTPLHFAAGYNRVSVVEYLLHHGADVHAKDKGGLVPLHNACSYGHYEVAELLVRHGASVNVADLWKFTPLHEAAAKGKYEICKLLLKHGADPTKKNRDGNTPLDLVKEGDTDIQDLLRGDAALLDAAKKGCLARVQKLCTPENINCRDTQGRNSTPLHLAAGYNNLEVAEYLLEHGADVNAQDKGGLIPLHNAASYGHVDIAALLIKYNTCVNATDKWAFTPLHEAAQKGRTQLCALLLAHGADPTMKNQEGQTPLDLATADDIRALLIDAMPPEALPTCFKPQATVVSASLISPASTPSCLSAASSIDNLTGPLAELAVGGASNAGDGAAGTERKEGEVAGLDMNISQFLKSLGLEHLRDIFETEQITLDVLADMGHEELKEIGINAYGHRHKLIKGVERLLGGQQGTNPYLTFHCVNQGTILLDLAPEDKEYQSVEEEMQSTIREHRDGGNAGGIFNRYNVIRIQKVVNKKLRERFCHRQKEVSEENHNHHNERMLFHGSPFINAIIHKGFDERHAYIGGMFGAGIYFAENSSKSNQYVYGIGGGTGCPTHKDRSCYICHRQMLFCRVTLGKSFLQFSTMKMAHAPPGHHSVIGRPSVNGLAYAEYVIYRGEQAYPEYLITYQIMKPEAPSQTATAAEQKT
Measure Name: IC50 (nM)
One number for each entry, in nM.

Answered examples (6):
{"Compound": "CCOC(=O)c1cnc2c(C(=O)N[C@H]3CC[C@H](C(=O)Nc4ccc(F)cc4Cl)CC3)cnn2c1", "Value": 49}
{"Compound": "CCNC(=O)c1[nH]cnc1C(=O)N[C@H]1CC[C@@]2(CCN(c3ccc(F)cc3)C2=O)CC1", "Value": 340}
{"Compound": "O=C(N[C@H]1CC[C@@]2(CCN(c3cccc(Cl)c3)C2=O)CC1)c1cnn2cccnc12", "Value": 540}
{"Compound": "CNC(=O)c1nc[nH]c1C(=O)N[C@H]1CC[C@H](C(=O)Nc2ccc(C)cc2Cl)CC1", "Value": 85}
{"Compound": "CNC(=O)c1nc[nH]c1C(=O)N[C@H]1CC[C@@]2(CCN(c3cc(C)c(F)cc3Cl)C2=O)CC1", "Value": 6.7}
{"Compound": "Cc1cc(N2CCC[C@]3(CC[C@@H](NC(=O)c4cnn5cccnc45)CC3)C2=O)c(Cl)cc1F", "Value": 94}

For each of the compounds below, state IC50.
1. CN(c1ccccc1)C(=O)[C@H]1CC[C@H](NC(=O)c2cnn3cccnc23)CC1
2. COC[C@H](C)NC(=O)c1nc[nH]c1C(=O)N[C@H]1CC[C@H](C(=O)Nc2ccc(F)cc2Cl)CC1

A)
1: 390; 2: 610

For each of the compounds below, state IC50.
1. Cc1cc(C)n2ncc(C(=O)N[C@H]3CC[C@@]4(CCN(c5cc(F)c(F)cc5Cl)C4=O)CC3)c2n1
2. CC(C)NC(=O)c1nc[nH]c1C(=O)N[C@H]1CC[C@@]2(CCN(c3ccc(F)cc3Cl)C2=O)CC1
3. Cc1cc(NC(=O)C23CCC(NC(=O)c4cnn5cccnc45)(CC2)CC3)c(Cl)cc1F
4. CCNC(=O)c1nc[nH]c1C(=O)N[C@H]1CC[C@@]2(CCN(c3cc(F)c(F)cc3Cl)C2=O)CC1
5. COC[C@H](C)NC(=O)c1nc[nH]c1C(=O)N[C@H]1CC[C@H](C(=O)Nc2c(F)cc(F)cc2Cl)CC1
6. Cc1cc(NC(=O)[C@H]2CC[C@H](NC(=O)c3[nH]cnc3C(=O)NCC3CCCO3)CC2)c(Cl)cc1F (some centres unmarked)
7. CC(C)NC(=O)c1nc[nH]c1C(=O)N[C@H]1CC[C@H](C(=O)Nc2ccc(F)cc2Cl)CC1
8. CNC(=O)c1nc[nH]c1C(=O)N[C@H]1CC[C@H](C(=O)Nc2cccnc2Cl)CC1

A)
7.1
13
89
4.5
310
59
90
250
